Target: BCL6 BTB domain (biotin-thrombin-BCL6 amino acids 1-129) (Homo sapiens (Human), UniProt P41182)
Form field: Kd (one value per entry).
All answers are understood in nM, so give the number only.

These recorded examples may help you get a feel for the data.
{"COMPOUND": "COc1c(O)c(C(N)=O)cc(-c2cn(CC(=O)Nc3cc(N4CCN(C)C[C@@H]4C)nc(F)c3Cl)c3nc4n(c(=O)c23)CCC4)c1F [I-15]", "QUANTITY_UNIT": "nM", "RESULT_VALUE": 34.1}
{"COMPOUND": "C[C@H]1CN(CC2(C)CC2)CCN1c1cc(NC(=O)Cn2cc(-c3cc(C(N)=O)c(O)c(F)c3F)c3c(=O)n4c(nc32)CCC4)c(Cl)cn1 [I-9]", "QUANTITY_UNIT": "nM", "RESULT_VALUE": 56.8}
{"COMPOUND": "C[C@@H](C1CC1)N1CCN(c2cc(NC(=O)Cn3cc(-c4cc(C(N)=O)c(O)c(F)c4F)c4c(=O)n5c(nc43)CCC5)c(Cl)c(F)n2)[C@@H](C)C1 [I-38]", "QUANTITY_UNIT": "nM", "RESULT_VALUE": 32.5}
{"COMPOUND": "CC1Cc2nc3c(c(-c4cc(C(N)=O)c(O)c(F)c4F)cn3CC(=O)Nc3cc(N4CCOC[C@@H]4C)nc(F)c3Cl)c(=O)n2C1 (stereo partly drawn) [I-64]", "QUANTITY_UNIT": "nM", "RESULT_VALUE": 27.4}
{"COMPOUND": "COc1c(-c2cn(CC(=O)Nc3cc(N4CCN(C)C[C@@H]4C)nc(F)c3Cl)c3nc4n(c(=O)c23)CCC4)cc(C(N)=O)c(O)c1OC [I-68]", "QUANTITY_UNIT": "nM", "RESULT_VALUE": 31.3}

Then there is this compound:
Query: Which Kd is reported for this compound? C[C@H]1CN(CC2CC2)CCN1c1cc(NC(=O)Cn2cc(-c3cc(C(N)=O)c(O)c(F)c3F)c3c(=O)n4c(nc32)CCC4)c(Cl)c(F)n1 [I-24]
Reply: 12.3

====

Form field: pKd (one value per entry).
Biological target: BCL6 BTB domain (biotin-thrombin-BCL6 amino acids 1-129) (Homo sapiens (Human), UniProt P41182)
Scale: negative log10 of molar concentration, which is what pKd denotes.

{"COMPOUND": "C[C@H]1CN(CC(F)F)CCN1c1cc(NC(=O)Cn2cc(-c3cc(C(N)=O)c(O)c(F)c3F)c3c(=O)n4c(nc32)CCC4)c(Cl)c(F)n1 [I-48]", "pKd": 7.86}

Query: Which pKd is reported for this compound? CN(C)c1cc(NC(=O)Cn2cc(-c3cc(C(N)=O)c(O)c(F)c3F)c3c(=O)n4c(nc32)CCC4)c(Cl)c(F)n1 [I-22]
Reply: 7.93

Query: Which pKd is reported for this compound? C[C@H]1COCCN1c1cc(NC(=O)Cn2cc(-c3cc(C(N)=O)c(O)c(F)c3F)c3c(=O)n4c(nc32)CCC4)c(Cl)c(F)n1 [I-5]
Reply: 7.93

====

Molecular target: BCL6 BTB domain (biotin-thrombin-BCL6 amino acids 1-129) (Homo sapiens (Human), UniProt P41182)
ASSAY_ENDPOINT: pKd
Scale: negative log10 of molar concentration, which is what pKd denotes.

These recorded examples may help you get a feel for the data.
{"SMILES_STRING": "NC(=O)c1cc(-c2cn(CC(=O)Nc3cc(N4CCCC4)nc(F)c3Cl)c3nc4n(c(=O)c23)CCC4)c(F)c(F)c1O", "RESULT_VALUE": 7.62}
{"SMILES_STRING": "C[C@H]1CN(C2COC2)CCN1c1cc(NC(=O)Cn2cc(-c3cc(C(N)=O)c(O)c(Cl)c3F)c3c(=O)n4c(nc32)CCC4)c(Cl)c(F)n1", "RESULT_VALUE": 7.52}

Then there is this compound:
Query: Which pKd is reported for this compound? CN(C)c1cc(NC(=O)Cn2cc(-c3cc(C(N)=O)c(O)c(Cl)c3F)c3c(=O)n4c(nc32)CCC4)c(Cl)c(F)n1
Reply: 6.72
